Reference source: ChEMBL document CHEMBL3244382

# System: P388
# Test details: Antitumor activity against mouse P388 cells allografted in PS mouse assessed as median survival time at 200 ug/kg relative to control
# Assay type: functional
Reported metric: T/C (%)
Number in %, nothing else.

COc1cc2cc(c1Cl)NC(=O)/C=C/C(C)=C/[C@H](C)[C@@H]1C[C@@](O)(NC(=O)O1)[C@H](OC)/C=C/C=C(\C)C2: 104
CCO[C@]12C[C@H](OC(=O)N1)[C@@H](C)[C@@H]1O[C@@]1(C)[C@@H](OC(=O)[C@H](C)N(C)C(=O)C(C)C)CC(=O)N(C)c1cc(cc(OC)c1Cl)C/C(C)=C/C=C/[C@H]2OC: 134
COc1cc2cc(c1Cl)N(C)C(=O)CC(O)C1(C)OC1C(C)C1CC(O)(NC(=O)O1)C(OC)/C=C/C=C(\C)C2 (configuration not stated) [MAYTANSINOL]: 112
CCCS[C@]12C[C@H](OC(=O)N1)[C@@H](C)[C@@H]1O[C@@]1(C)[C@@H](OC(=O)[C@H](C)N(C)C(=O)C(C)C)CC(=O)N(C)c1cc(cc(OC)c1Cl)C/C(C)=C/C=C/[C@H]2OC: 151
COc1cc2cc(c1Cl)N(C)C(=O)C[C@H](OC(C)=O)[C@]1(C)O[C@H]1[C@H](C)[C@@H]1C[C@@](O)(NC(=O)O1)[C@H](OC)/C=C/C=C(\C)C2: 100

Provide only the value of recorded T/C for `COc1cc2cc(c1Cl)N(C)C(=O)C[C@H](OC(=O)[C@H](C)N(C)C(C)=O)[C@]1(C)O[C@H]1[C@H](C)[C@@H]1C[C@@](OC)(NC(=O)O1)[C@H](OC)/C=C/C=C(\C)C2`
93

Entry `C/C=C/C(=O)O[C@H]1CC(=O)N(C)c2cc(cc(OC)c2Cl)C/C(C)=C/C=C/[C@@H](OC)[C@@]2(O)C[C@H](OC(=O)N2)[C@@H](C)[C@@H]2O[C@@]12C` needs its T/C filled in; supply it.
210

Read off the recorded T/C for `CCO[C@]12C[C@H](OC(=O)N1)[C@@H](C)[C@@H]1O[C@@]1(C)[C@@H](OC(=O)[C@H](C)N(C)C(C)=O)CC(=O)N(C)c1cc(cc(OC)c1Cl)C/C(C)=C/C=C/[C@H]2OC`
98

Input `COc1cc2cc(c1Cl)N(C)C(=O)C[C@H](OC(=O)[C@H](C)N(C)C(=O)C(C)C)[C@]1(C)O[C@H]1[C@H](C)[C@@H]1C[C@@](OC)(NC(=O)O1)[C@H](OC)/C=C/C=C(\C)C2` , output reported T/C.
100

Supply reported T/C belonging to this molecule: `CCCS[C@]12C[C@H](OC(=O)N1)[C@@H](C)[C@@H]1O[C@@]1(C)[C@@H](OC(=O)[C@H](C)N(C)C(C)=O)CC(=O)N(C)c1cc(cc(OC)c1Cl)C/C(C)=C/C=C/[C@H]2OC`
114

###

# System: Mus musculus
# Test details: Toxicity in PS mouse allografted with mouse P388 cells assessed as change in body weight at 200 ug/kg relative to control
# Assay type: organism-based
# Particulars: in vivo, 0.2 mg/kg
# Activity per entry
Answer with a number only, understood to be in g.

Below are worked cases with known answers.
COc1cc2cc(c1Cl)N(C)C(=O)C[C@H](OC(=O)CBr)[C@]1(C)O[C@H]1[C@H](C)[C@@H]1C[C@@](O)(NC(=O)O1)[C@H](OC)/C=C/C=C(\C)C2: -2.5
COc1cc2cc(c1Cl)N(C)C(=O)C[C@H](OC(C)=O)[C@]1(C)O[C@H]1[C@H](C)[C@@H]1C[C@@](O)(NC(=O)O1)[C@H](OC)/C=C/C=C(\C)C2: -3.7
CCCS[C@]12C[C@H](OC(=O)N1)[C@@H](C)[C@@H]1O[C@@]1(C)[C@@H](OC(=O)[C@H](C)N(C)C(=O)C(C)C)CC(=O)N(C)c1cc(cc(OC)c1Cl)C/C(C)=C/C=C/[C@H]2OC: -2.4

Please list Activity recorded for the compound `COc1cc2cc(c1Cl)N(C)C(=O)C[C@H](OC(=O)[C@H](C)N(C)C(=O)C(C)C)[C@]1(C)O[C@H]1[C@H](C)[C@@H]1C[C@@](OC)(NC(=O)O1)[C@H](OC)/C=C/C=C(\C)C2`
-0.9

Report Activity for COc1cc2cc(c1Cl)N(C)C(=O)CC(O)C1(C)OC1C(C)C1CC(O)(NC(=O)O1)C(OC)/C=C/C=C(\C)C2 (stereo unspecified)
-1.8

In one line, give reported Activity of the entry `COc1cc2cc(c1Cl)N(C)C(=O)C[C@H](OC(=O)[C@H](C)N(C)C(C)=O)[C@]1(C)O[C@H]1[C@H](C)[C@@H]1C[C@@](OC)(NC(=O)O1)[C@H](OC)/C=C/C=C(\C)C2` .
-0.7
